Target: FIH (Homo sapiens)
Construct: made in house
Sequence (Q9NWT6 whole entry): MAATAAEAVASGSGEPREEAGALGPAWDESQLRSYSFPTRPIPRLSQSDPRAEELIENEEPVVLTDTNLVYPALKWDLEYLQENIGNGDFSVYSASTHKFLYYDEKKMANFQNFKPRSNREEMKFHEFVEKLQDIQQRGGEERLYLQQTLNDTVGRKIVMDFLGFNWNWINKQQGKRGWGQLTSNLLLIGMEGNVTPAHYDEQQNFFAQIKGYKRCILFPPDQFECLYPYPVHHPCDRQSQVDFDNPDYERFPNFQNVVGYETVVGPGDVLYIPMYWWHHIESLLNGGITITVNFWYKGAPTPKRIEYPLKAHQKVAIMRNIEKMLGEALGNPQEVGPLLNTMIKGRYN
Assay: LC-MS analysis of peptide substrates after incubation with FIH
Type: biochemical
Conditions: after incubation with FIH under standard assay conditions
measured.attribute: Hydroxylation of peptide observed by LC-MS analysis

# substance, reported.result
data = [
    ("Tankyrase 1/2: fragment of Tankyrase, NLEVAEYLLEHGADVNAQDK (SEQ ID NO: 15) (listed as Homo sapiens)", "Yes"),
    ("FEM-1 21 mer: fragment of FEM-1, NALVTKLLLDCGAEVNAVDNE (SEQ ID NO: 3) (listed as Homo sapiens)", "hydroxylated"),
    ("Myotrophin: fragment of Myotrophin, QLEILEFLLLKGADINAPDK (SEQ ID NO: 18) (listed as Homo sapiens)", "Yes"),
    ("CAD: HIF C-terminal transactivation domain standard peptide DESGLPQLTSYDCEVNAPI (SEQ ID NO: 11) (listed as Homo sapiens) [reference compound]", "Yes"),
    ("Gankyrin/p28-II: fragment of Gankyrin/p28-II, RDEIVKALLGKGAQVNAVNQ (SEQ ID NO: 17) (listed as Homo sapiens)", "Yes"),
    ("M110: fragment of M110, YTEVLKLLIQAGYDVNIKDY (SEQ ID NO: 19) (listed as Homo sapiens)", "Yes"),
    ("FGIF: fragment of FGIF, NTRVASFLLQHDADINAQTK (SEQ ID NO: 20) (listed as Homo sapiens)", "Yes"),
    ("2-5A-d-R: fragment of 2-5A-d-R, VEVLKILLDEMGADVNACDN (SEQ ID NO: 16) (listed as Homo sapiens)", "Yes"),
    ("IkBa 21 mer: fragment of IκB-α, YLGIVELLVSLGADVNAQEPC (SEQ ID NO: 1) (listed as Homo sapiens)", "hydroxylated"),
    ("GABPbeta: fragment of GABPbeta, HASIVEVLLKHGADVNAKDM (SEQ ID NO: 14) (listed as Homo sapiens)", "Yes"),
    ("p19-INK-4d: fragment of P19-INK4d, FLDTLKVLVEHGADVNVPDG (SEQ ID NO: 13) (listed as Homo sapiens)", "Yes"),
]
